Tested on: Malme-3M
Experimental details: NCI tumour cell line growth inhibition, 48 h
Calls of active or inactive are those of the source. Cut-off read from the data, not from the text of the source: active = GI50 up to about 1.1 µM and inactive = higher.
Measured endpoint: GI50

[
  {
    "Molecule": "N#CSC1CCCCNC1=O (stereo unspecified)",
    "Measured endpoint": "GI50",
    "Obs value": "14.4 µM (inactive)"
  },
  {
    "Molecule": "CC1=C(O)C(=O)C2C(=O)C1C(C)C2c1ccccc1 (stereo unspecified)",
    "Measured endpoint": "GI50",
    "Obs value": "> 100 µM (inactive)"
  },
  {
    "Molecule": "CC1C[C@]2(C)C(=O)N(c3ccccc3)C(=N)[C@@H]2N(C)c2ccccc21 (stereo partly specified)",
    "Measured endpoint": "GI50",
    "Obs value": "> 100 µM (inactive)"
  },
  {
    "Molecule": "CC(C(=O)NCCNC(=O)CCCC(=O)N(C)O)C(=O)NCCNC(=O)CCCC(=O)N(C)O",
    "Measured endpoint": "GI50",
    "Obs value": "> 100 µM (inactive)"
  },
  {
    "Molecule": "O=S1(=O)CCCS(=O)(=O)C(c2ccccc2)=C1c1ccccc1",
    "Measured endpoint": "GI50",
    "Obs value": "34.2 µM (inactive)"
  },
  {
    "Molecule": "CCNc1nc(N)c(C(=O)c2ccc(Cl)cc2)s1",
    "Measured endpoint": "GI50",
    "Obs value": "> 100 µM (inactive)"
  }
]

Field: GI50 (Malme-3M). Entry: "[N-]=[N+]=Nc1ccc(NCCCCCC(=O)ON2C(=O)CCC2=O)c([N+](=O)[O-])c1"
27.9 µM (inactive)

Field: GI50 (Malme-3M). Entry: "Cc1ccc(S(=O)(=O)N(C=O)N=C2CCN(Cc3ccccc3)CC2)cc1"
> 100 µM (inactive)

Field: GI50 (Malme-3M). Entry: "Cc1ccc(C(=O)Nc2ccc(CP(=O)(O)O)cc2CP(=O)(O)O)cc1NC(=O)c1cccc(N)c1"
> 100 µM (inactive)

Field: GI50 (Malme-3M). Entry: "C=C1C(=O)C23[C@H](O)C1CC[C@H]2[C@]12COC3(O)[C@@H](O)[C@@H]1C(C)(C)CC[C@@H]2O"
2.49 µM (inactive)

Field: GI50 (Malme-3M). Entry: "CCCCCCCCCCCC(=O)c1c(O)cc(C)oc1=O"
45 µM (inactive)

---

Tested on: SK-MEL-2
Experimental details: NCI tumour cell line growth inhibition, 48 h
Active and inactive are the calls of the source. Rule as the data show it: active = GI50 up to about 1.1 µM and inactive = higher.
Some molecules, each annotated with its measured GI50.

[
  {
    "Molecule": "Cc1cccc2nc3cc(O)cc(O)c3c(O)c12",
    "GI50": "> 10 µM (inactive)"
  },
  {
    "Molecule": "CC(C)(C)OC(=O)N1C(OP(=O)(Oc2ccccc2)Oc2ccccc2)=CSc2ccccc21",
    "GI50": "19.1 µM (inactive)"
  },
  {
    "Molecule": "O=C1C2CCCCC2C(=O)N1n1c(Cc2ccccc2)n[nH]c1=O (configuration not stated)",
    "GI50": "> 100 µM (inactive)"
  }
]

I am curious: what GI50 value has been reported for COC1OC(CO)C(O)C(OC(C)=O)C1NC(=O)N(CCCl)N=O (configuration not stated) ?
0.0112 µM (active)

Data provenance: ChEMBL document CHEMBL1201862
